Test system: A549
run_description: Cytotoxicity against human A549 cells assessed as reduction in cell viability incubated for 48 hrs by MTT assay
Format: functional, cell-based
test_settings: A549, 48 h
Entries and their IC50
quantity: IC50 (µM)

                           smiles_structure  relational_operator  result_value
0  O=C(/C=C\Nc1cnc2ccccc2c1)c1nc(-c2ccccc2)n2ccccc12                    >            30
1  O=C(/C=C\Nc1ccc2[nH]ccc2c1)c1nc(-c2ccc(C(F)(F)F)cc2)n2ccccc12                    =          5.19
2  COc1ccc(-c2nc(C(=O)/C=C\Nc3ccc(F)cc3)c3ccccn23)cc1                    >            30
3  COc1ccc(-c2nc(C(=O)/C=C\Nc3ccc4[nH]ccc4c3)c3ccccn23)cc1                    =           4.8
4  COc1ccc(N/C=C\C(=O)c2nc(-c3ccc(C(F)(F)F)cc3)n3ccccc23)cc1                    =          21.8
5  COc1ccc(N/C=C\C(=O)c2nc(-c3ccccc3)n3ccccc23)cc1                    >            30
6  O=C(/C=C\Nc1ccc(Cl)cc1)c1nc(-c2ccc(F)cc2)n2ccccc12                    =          5.09
7  Cc1cc2cc(N/C=C\C(=O)c3nc(-c4ccc(F)cc4)n4ccccc34)ccc2[nH]1                    >            30

----------
System: HCT-116
run_description: Cytotoxicity against human HCT-116 cells assessed as reduction in cell viability incubated for 48 hrs by MTT assay
Type: functional, cell-based
test_settings: HCT-116, 48 h
Entries and their IC50
quantity: IC50

In [3]: df
Out[3]:
                            smiles_structure  result_value
 0  COc1ccc(-c2nc(C(=O)/C=C\Nc3ccc(Cl)cc3)c3ccccn23)cc1       > 30 µM
 1  O=C(/C=C\Nc1ccc(F)cc1)c1nc(-c2ccc(C(F)(F)F)cc2)n2ccccc12       > 30 µM
 2  O=C(/C=C\Nc1cnc2ccccc2c1)c1nc(-c2ccc(C(F)(F)F)cc2)n2ccccc12       > 30 µM
 3  COc1ccc(N/C=C\C(=O)c2nc(-c3ccc(C(F)(F)F)cc3)n3ccccc23)cc1OC       > 30 µM
 4  O=C(/C=C\Nc1ccc(F)cc1)c1nc(-c2ccc(F)cc2)n2ccccc12       > 30 µM
 5  COc1ccc(N/C=C\C(=O)c2nc(-c3ccc(OC)cc3)n3ccccc23)cc1       > 30 µM
 6    COC(=O)Nc1nc2cc(C(=O)c3cccs3)ccc2[nH]1       2.82 µM
 7  COc1ccc(-c2nc(C(=O)/C=C\Nc3ccc(F)cc3)c3ccccn23)cc1       > 30 µM
 8  COc1ccc(N/C=C\C(=O)c2nc(-c3ccccc3)n3ccccc23)cc1       7.01 µM
 9  COc1ccc(N/C=C\C(=O)c2nc(-c3ccc(F)cc3)n3ccccc23)cc1       > 30 µM
10  COc1ccc(N/C=C\C(=O)c2nc(-c3ccc(F)cc3)n3ccccc23)cc1OC       > 30 µM
11  O=C(/C=C\Nc1ccc2cc[nH]c2c1)c1nc(-c2ccc(C(F)(F)F)cc2)n2ccccc12       > 30 µM
12  O=C(/C=C\Nc1cnc2ccccc2c1)c1nc(-c2ccccc2)n2ccccc12       > 30 µM
13  O=C(/C=C\Nc1ccc2[nH]ccc2c1)c1nc(-c2ccc(C(F)(F)F)cc2)n2ccccc12       27.1 µM
14  COc1ccc(N/C=C\C(=O)c2nc(-c3ccc(C(F)(F)F)cc3)n3ccccc23)cc1       7.72 µM
15  O=C(/C=C\Nc1ccc(Cl)cc1)c1nc(-c2ccc(C(F)(F)F)cc2)n2ccccc12       11.5 µM
16  COc1ccc(-c2nc(C(=O)/C=C\Nc3ccc4[nH]ccc4c3)c3ccccn23)cc1       17.4 µM
17  Cc1cc2cc(N/C=C\C(=O)c3nc(-c4ccc(F)cc4)n4ccccc34)ccc2[nH]1       > 30 µM
18  O=C(/C=C\Nc1ccc(Cl)cc1)c1nc(-c2ccc(F)cc2)n2ccccc12       1.21 µM

Hello, the source for this data is ChEMBL document CHEMBL4665711, in case you need it.
